The reported measurements were obtained from the supplement of paper PMC10567573.

Listing of entries alongside the reported protein stability index.
B1: INTS4 (parent)
chain: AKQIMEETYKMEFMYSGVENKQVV

Variants of: B1
Assay: protein stability index of a GFP-peptide fusion (GPS, HEK-293T) (PSI 1-6); higher = more stable;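 note: lentivirally expressed fusions sorted by FACS into six bins by GFP to DsRed ratio, PSI derived from sequencing read proportions per bin multiplied by bin number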
Settings: c terminus: a fixed tail appended
Would you mind answering with just the numeric figure?

Example variants with recorded protein stability index:
[
  {
    "Variant Designation": "M14Q",
    "protein stability index": 2.11
  },
  {
    "Variant Designation": "N20Y",
    "protein stability index": 1.73
  },
  {
    "Variant Designation": "M11N",
    "protein stability index": 3.98
  }
]

Recorded result, V24H , protein stability index: 1.65

Sample K2Y ; protein stability index observed: 1.87

Looking up A1M , I see its protein stability index listed as 1.34

Query E7R yields protein stability index of 2.55

Quick note, protein stability index for Q3A landed at 2.15

Notebook: T8C , protein stability index read as 1.52

Q3H yielded protein stability index of 1.69

Noted for M14S : its protein stability index reads 1.66

According to the records, this variant M14N displays protein stability index of 1.99
